Consider the following compounds; for each one, report its IC50.
# Test system: MCF7
# assay-info: Antiproliferative activity against human MCF7 cells after 48 hrs by CCK-8 assay
# Format: functional, cell-based
# stated-conditions: MCF7, 48 h
Report only the number, with the unit µg/mL understood.

Which IC50 value is on record for `COc1ccc2[nH]c(C)c(C3=C(Cl)C(=O)C(Cl)=C(c4c(-c5ccc(C)cc5)[nH]c5ccccc45)C3=O)c2c1` ?
2.31

Find the recorded IC50 belonging to `Cc1[nH]c2ccccc2c1C1=C(Br)C(=O)C(c2c(-c3ccccc3)[nH]c3ccccc23)=C(Br)C1=O` and report it.
3.02

Would you mind telling me what IC50 value was observed for `Cc1[nH]c2ccccc2c1C1=C(Br)C(=O)C(Br)=C(c2c(-c3ccccc3)[nH]c3ccccc23)C1=O` ?
3.02

* * *

# Tested on: MDA-MB-231
# assay-info: Antiproliferative activity against human MDA-MB-231 cells after 48 hrs by CCK-8 assay
# Format: functional, cell-based
# stated-conditions: MDA-MB-231, 48 h
recorded-endpoint: IC50

# returns recorded IC50 (system: MDA-MB-231) for `Cc1[nH]c2ccccc2c1C1=C(Br)C(=O)C(c2c(C)[nH]c3ccccc23)=C(Br)C1=O`
5.55 µg/mL

Lab note: need IC50 with MDA-MB-231 for entry `COc1ccc2[nH]c(C)c(C3=C(Br)C(=O)C(c4c(-c5ccc(C)cc5)[nH]c5ccccc45)=C(Br)C3=O)c2c1` , please look it up.
3.99 µg/mL

# value lookup — system MDA-MB-231, readout IC50, item `COc1ccc2[nH]c(C)c(C3=C(Br)C(=O)C(Br)=C(Br)C3=O)c2c1`
> 10 µg/mL

Item `Cc1[nH]c2ccccc2c1C1=C(Br)C(=O)C(Br)=C(c2c(C)[nH]c3ccccc23)C1=O` with MDA-MB-231 - IC50?
4.76 µg/mL

Query the reported IC50 for MDA-MB-231; item: `O=C1C(Cl)=C(Cl)C(=O)C(c2c(-c3ccccc3)[nH]c3ccccc23)=C1Cl`
34.9 µg/mL

Return IC50 measured with MDA-MB-231 given this compound: `Cc1[nH]c2ccccc2c1C1=C(Cl)C(=O)C(Cl)=C(c2c(-c3ccccc3)[nH]c3ccccc23)C1=O`
5.27 µg/mL

Hello, I am looking for reported IC50 with MDA-MB-231 for `Cc1ccc(-c2[nH]c3ccccc3c2C2=C(Br)C(=O)C(c3c(C)[nH]c4ccccc34)=C(Br)C2=O)cc1` . Could you help?
6.67 µg/mL

Provide the documented IC50 with MDA-MB-231 as the system for `COc1ccc2[nH]c(C)c(C3=C(Cl)C(=O)C(Cl)=C(c4c(-c5ccc(C)cc5)[nH]c5ccccc45)C3=O)c2c1`
6.04 µg/mL

* * *

# Tested on: MCF7
# assay-info: Antiproliferative activity against human MCF7 cells after 48 hrs by CCK-8 assay
# Type: functional, cell-based
# stated-conditions: MCF7, 48 h
Mark Met only when IC50 stays strictly below 3 µg/mL. Values equal to the cut-off are Not met.

Given `Cc1ccc(-c2[nH]c3ccccc3c2C2=C(Cl)C(=O)C(c3c(C)[nH]c4ccccc34)=C(Cl)C2=O)cc1` , is recorded IC50 strictly lower than 3 µg/mL?
Met

Strictly below 3 µg/mL in IC50? `Cc1ccc(-c2[nH]c3ccccc3c2C2=C(Br)C(=O)C(c3c(C)[nH]c4ccccc34)=C(Br)C2=O)cc1`
Not met

Given `Cc1ccc(-c2[nH]c3ccccc3c2C2=C(Br)C(=O)C(Br)=C(Br)C2=O)cc1` , is recorded IC50 strictly lower than 3 µg/mL?
Not met

Strictly below 3 µg/mL: is that where IC50 of `COc1ccc2[nH]c(C)c(C3=C(Br)C(=O)C(c4c(-c5ccccc5)[nH]c5ccccc45)=C(Br)C3=O)c2c1` sits?
Met

Bench note: check whether `Cc1[nH]c2ccccc2c1C1=C(Cl)C(=O)C(c2c(-c3ccccc3)[nH]c3ccccc23)=C(Cl)C1=O` shows IC50 below 3 µg/mL
Met

Lab log: compare recorded IC50 with 3 µg/mL; is it strictly lower for `Cc1ccc(-c2[nH]c3ccccc3c2C2=C(Cl)C(=O)C(Cl)=C(c3c(C)[nH]c4ccccc34)C2=O)cc1` ?
Met

Dear colleague, could you confirm whether IC50 of `COc1ccc2[nH]c(C)c(C3=C(Br)C(=O)C(Br)=C(c4c(-c5ccccc5)[nH]c5ccccc45)C3=O)c2c1` falls below 3 µg/mL? Thanks.
Not met

Lab log: compare recorded IC50 with 3 µg/mL; is it strictly lower for `COc1ccc2[nH]c(C)c(C3=C(Br)C(=O)C(Br)=C(Br)C3=O)c2c1` ?
Not met
